method summary: small-molecule microarray binders of probe aEGFR, primary screen, biochemical, biotinylated probe, 635/667 nm fluorescence (AID 1097);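 note: probe is a biotinylated anti-EGFR antibody binding compounds printed on slides; score combines fluorescence near 667 nm and signal to noise of each spot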
study conditions: higher = more signal
Listed here are compounds together with their documented composite z-score.
Number only, no unit.

compound: O=C1N(CCS(=O)(=O)c2ccccc2)Cc2ccccc2[C@H]2OC(c3ccc(OCCCO)cc3)=N[C@@]12CCS(=O)(=O)c1ccccc1
measured endpoint: composite z-score
number: 0.162
--
compound: CC(C)Cc1ccc(CN2CC[C@@H](NS(=O)(=O)c3ccccc3)C2)cc1
measured endpoint: composite z-score
number: -0.154
--
compound: [N-]=[N+]=NCc1ccccc1C[C@]1(C(=O)NCCN2CCOCC2)N=C(c2ccc(OCCCO)cc2)O[C@H]1c1ccccc1N=[N+]=[N-]
measured endpoint: composite z-score
number: 0.0488

Next item in the queue.
For the compound shown here, CN1CCC(CCCO)=CC1c1ccc(CN2CCCC2)cc1 (centres undefined) , give the reported composite z-score. 0.337

---

method summary: basal 3T3-L1 adipocyte mitochondrial potential changes, profiling panel, cell-based, JC-1 fluorescence, 3T3-L1 adipocytes, 24 h, 100 nL compound (AID 1168); note: test concentration not given here
study conditions: JC-1 mitochondrial fluorescence, higher = more signal, called active from +8 up or from −8 down
satisfied means recorded z-score is 0.1 or above; not satisfied means it is below 0.1.

Would you please look over these solved cases?
compound: [N-]=[N+]=NCc1ccccc1C[C@]1(C(=O)O)N=C(c2ccc(OCCCO)cc2)O[C@H]1c1ccccc1
label value: satisfied
//
compound: N#Cc1ccc(NN2C(C(O)c3ccc([N+](=O)[O-])cc3)C=CC3C(=O)N(c4ccccc4)C(=O)C32)cc1 (stereo unspecified)
label value: not satisfied
//
compound: CN(C)C(=O)[C@@]1(CCC(=O)OC(C)(C)C)N=C(c2ccc(OCCCO)cc2)O[C@H]1c1ccccc1
label value: not satisfied
//
compound: CC(C)C[C@@H]1NC(=O)[C@H]2C[C@@H](C(=O)NCCCCCNC(=O)CS)[C@@H](c3cccc(OCCO)c3)N2C1=O
label value: not satisfied
//
compound: CCCCCN1CC=CC23O[C@@H]4/C=C\CCC(C)OC(=O)C4[C@H]2C(=O)N(CCCCCO)[C@@H]3C1=O (stereo partly specified)
label value: satisfied

Item O=C1C2C=CC(C(O)c3ccc(F)cc3)N(Nc3ccccc3)C2C(=O)N1c1ccccc1 (stereo unspecified) with z-score of 0.1 or above? not satisfied

Item "Cc1ccc(S[C@]2(C(=O)NC3CC3)CC(=O)N(C3CCCCC3)[C@@H]2c2ccc(CO)cc2I)cc1" with z-score of 0.1 or above? satisfied

---

method summary: small-molecule microarray binders of probe aDKK1, primary screen, biochemical, biotinylated probe, 635/667 nm fluorescence (AID 1099);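 note: score merges 667nm spot fluorescence with signal to noise across triplicate slides; reference of the scale not given here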
study conditions: higher = more signal
criterion met means recorded composite z-score is 0.5 or above; criterion not met means it is below 0.5.

Would you please look over these solved cases?
compound: CCOc1cc(C(O)C2C=CC3C(=O)N(c4ccccc4)C(=O)C3N2Nc2ccc([N+](=O)[O-])cc2)ccc1O (stereo not drawn)
label value: criterion not met
--
compound: COC(=O)[C@@]1(Cc2ccccc2)[C@H]2c3cc(C(=O)N4CCCC4)n(Cc4ccc(C)o4)c3C[C@H]2CN1C(=O)c1ccccc1
label value: criterion met
--
compound: [N-]=[N+]=NCc1ccccc1[C@@H]1OC(c2ccc(OCCCO)cc2)=N[C@]1(Cc1ccccc1)C(=O)N1CCCCC1
label value: criterion met
--
compound: COC(=O)c1c(CC[C@@H](CO)NC(=O)N[C@@H](Cc2ccccc2)Cn2cc(C3(O)CCCCC3)nn2)oc(C(C)=O)c1C(=O)OC
label value: criterion not met
--
compound: COc1ccc(C(=O)Nc2cccc(CN3C(=O)[C@]4(O[C@H](CC(=O)N5CCC[C@H]5CO)[C@@H]([Si](C)(C)c5ccc(OC)cc5)[C@@H]4C)c4ccccc43)c2)cc1
label value: criterion not met

Item "Cc1c(NC(=O)CC#N)c(=O)n(-c2ccccc2)n1C" with composite z-score of 0.5 or above? criterion not met

Item CS(=O)(=O)CCOC(=O)C1=CC(CCCO)=CC(c2cccs2)N(Cc2cc3c(cc2Br)OCO3)C=C1C(=O)OCCS(C)(=O)=O (stereo not drawn) with composite z-score of 0.5 or above? criterion not met

Item "COCCOC(=O)N1C(=O)[C@@]2(c3cc(C#CCNC(N)=O)ccc31)[C@H](c1ccc(O)cc1)N1[C@H](c3ccccc3)[C@H](c3ccccc3)OC(=O)[C@H]1[C@@H]2C(=O)Nc1nc2ccccc2s1" with composite z-score of 0.5 or above? criterion met

Item "C=C(CCCC)C(=O)CC[C@H](OC(=O)c1cccnc1)c1cccc(OCCO)c1" with composite z-score of 0.5 or above? criterion not met

These data points were gathered from PubChem BioAssay.
